System: galium (catchweed bedstraw, Galium aparine)
assay.overview: Test C pre-/postemergence greenhouse test
Assay type: in vivo
measurement.setup: Preemergence, 61 g ai/ha; scale 0 to 100
Attribute: Plant response rating, Galium
Number only, no unit.

In the examples that follow, each entry is paired with its recorded Plant response rating, Galium.
>  <molecule>
Cc1ccc2ccc(Cl)cc2c1-c1c(O)c(Cl)nn(C)c1=O [Cpd. No. 22]

>  <target>
galium (catchweed bedstraw, Galium aparine)

>  <Plant response rating, Galium>
20

$$$$
>  <molecule>
Cc1ccc2ccc(F)cc2c1-c1c(O)c(Cl)nn(C)c1=O [Cpd. No. 21]

>  <target>
galium (catchweed bedstraw, Galium aparine)

>  <Plant response rating, Galium>
90

$$$$
>  <molecule>
Cc1cc(Cl)c2ccccc2c1-c1c(O)c(Cl)nn(C)c1=O [Cpd. No. 65]

>  <target>
galium (catchweed bedstraw, Galium aparine)

>  <Plant response rating, Galium>
0

$$$$

For the molecule Cc1ccc2ccc(C)c(-c3c(O)c(Cl)nn(C)c3=O)c2c1 [Cpd. No. 20] , give its reported Plant response rating, Galium.
98

The measured values listed here are drawn from patent US12435044B2.
